B1: Zinc finger homeobox protein 3, residues 2643 to 2698; numbered along this chain, Q15911 (parent)
chain: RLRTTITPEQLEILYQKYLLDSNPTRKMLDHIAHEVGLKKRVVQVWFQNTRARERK

# Variants of: B1
# Assay Remarks: abundance fitness (aPCA) (normalised: wild type 0, dead -1); higher = more abundant; growth selection in yeast, the domain comes from the species named
# Condition: Homo sapiens
Test Readout: abundance fitness

In [3]: df
Out[3]:
    variant  observed_measurement
 0      T4K                -0.318
 1     N23K                -0.335
 2     L38G                -0.972
 3      R1L                 0.561
 4     H31A                 0.109
 5     L29K                -0.695
 6     Y15G                 0.126
 7     Q44I                -0.286
 8     H31Y                -0.014
 9     R51H                 0.164
10     A33W                -0.728
11     E12H                -0.069
12     Q48N                 -0.21
13     K17G                -0.528
14     R41A                 0.159
15     A52C                -0.209
16     L11N                 0.305
17     K17Y                -0.096
18     E12Q                -0.049
19      T7M                -0.228
20     E12V                -0.396
21     A33Y                -0.822
